Value source: ChEMBL document CHEMBL5506027

- Measurement target: CDK8/Cyclin C (Homo sapiens, UniProt P49336)
- Sequence (P49336 whole entry): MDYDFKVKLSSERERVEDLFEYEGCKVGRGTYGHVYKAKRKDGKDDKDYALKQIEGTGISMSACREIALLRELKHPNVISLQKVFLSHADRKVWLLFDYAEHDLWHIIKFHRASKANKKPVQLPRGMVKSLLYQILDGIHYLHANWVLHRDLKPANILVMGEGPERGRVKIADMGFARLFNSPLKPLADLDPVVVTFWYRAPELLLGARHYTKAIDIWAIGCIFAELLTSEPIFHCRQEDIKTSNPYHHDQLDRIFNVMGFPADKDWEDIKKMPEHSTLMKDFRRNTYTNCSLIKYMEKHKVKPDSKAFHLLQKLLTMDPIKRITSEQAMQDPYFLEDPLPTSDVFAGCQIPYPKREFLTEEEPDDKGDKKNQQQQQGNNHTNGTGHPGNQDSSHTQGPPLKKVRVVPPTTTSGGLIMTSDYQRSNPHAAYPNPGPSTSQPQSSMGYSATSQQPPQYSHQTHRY
- Sequence (P24863 whole entry, further chain): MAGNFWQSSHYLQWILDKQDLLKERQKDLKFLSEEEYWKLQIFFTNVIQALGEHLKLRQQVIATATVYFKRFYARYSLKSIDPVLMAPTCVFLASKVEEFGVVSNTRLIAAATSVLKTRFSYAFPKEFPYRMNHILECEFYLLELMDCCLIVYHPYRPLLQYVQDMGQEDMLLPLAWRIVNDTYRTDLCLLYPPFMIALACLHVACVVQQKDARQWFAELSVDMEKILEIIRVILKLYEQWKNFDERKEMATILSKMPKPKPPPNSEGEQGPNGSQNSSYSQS
- Method notes: Displacement of tracer 236 from CDK8/cyclin C (unknown origin) preincubated for 15 mins followed by tracer addition and measured after 60 mins by FRET based lanthascreen assay
- Type: protein-complex assay
pIC50: −log10 of the molar value.
Measured property: pIC50

In [3]: df
Out[3]:
                                    compound                        measurement_target  measured_property  op  experimental_value
 0  CN1CCN(c2nc3c(C(F)F)c(Br)c(Br)cc3n2C2CCOCC2)CC1  CDK8/Cyclin C (Homo sapiens, UniProt P49336)              pIC50   =                8.19
 1  Cc1c(Br)c(Br)cc2c1nc(N1CCNCC1)n2[C@H]1CC[C@H](O)CC1  CDK8/Cyclin C (Homo sapiens, UniProt P49336)              pIC50   =                7.95
 2   Cc1c(Br)c(Br)cc2c1nc(N1CCNCC1)n2C1CCCC1  CDK8/Cyclin C (Homo sapiens, UniProt P49336)              pIC50   =                7.44
 3  C=Cc1c(Br)c(Br)cc2c1nc(N1CCNCC1)n2C1CCOCC1  CDK8/Cyclin C (Homo sapiens, UniProt P49336)              pIC50   =                7.47
 4  Cc1c(Br)c(Br)c(C)c2c1nc(N1CCNCC1)n2C1CCCC1  CDK8/Cyclin C (Homo sapiens, UniProt P49336)              pIC50   =                6.86
 5  Cc1c(Br)c(Br)cc2c1nc(N1CCNCC1)n2C1CC2(COC2)C1  CDK8/Cyclin C (Homo sapiens, UniProt P49336)              pIC50   <                6.00
 6  Cc1c(Br)c(Br)cc2c1nc(N1CCNCC1)n2C1CCOCC1  CDK8/Cyclin C (Homo sapiens, UniProt P49336)              pIC50   =                8.10
 7  FC(F)c1c(Br)c(Br)cc2c1nc(N1CCNCC1)n2C1CCOCC1  CDK8/Cyclin C (Homo sapiens, UniProt P49336)              pIC50   =                8.68
 8  Cc1c(Br)c(Br)cc2c1nc(N1CCNCC1)n2C1CCCOC1 (stereo unspecified)  CDK8/Cyclin C (Homo sapiens, UniProt P49336)              pIC50   =                7.78
 9  OCCN1CCN(c2nc3c(C(F)F)c(Br)c(Br)cc3n2C2CCOCC2)CC1  CDK8/Cyclin C (Homo sapiens, UniProt P49336)              pIC50   =                8.19
10  NC1CCN(c2nc3c(C(F)F)c(Br)c(Br)cc3n2C2CCOCC2)CC1  CDK8/Cyclin C (Homo sapiens, UniProt P49336)              pIC50   =                7.46
11  N[C@@H]1CCN(c2nc3c(C(F)F)c(Br)c(Br)cc3n2C2CCOCC2)C1  CDK8/Cyclin C (Homo sapiens, UniProt P49336)              pIC50   =                7.70
12  Brc1cc2c(nc(N3CCNCC3)n2C2CCOCC2)c(C2CC2)c1Br  CDK8/Cyclin C (Homo sapiens, UniProt P49336)              pIC50   =                7.31
13  Clc1c(Br)c(Br)cc2c1nc(N1CCNCC1)n2C1CCOCC1  CDK8/Cyclin C (Homo sapiens, UniProt P49336)              pIC50   =                7.04
14  C#Cc1c(Br)c(Br)cc2c1nc(N1CCNCC1)n2C1CCOCC1  CDK8/Cyclin C (Homo sapiens, UniProt P49336)              pIC50   =                7.97
15     Brc1cc2nc(N3CCNCC3)n(C3CCOCC3)c2cc1Br  CDK8/Cyclin C (Homo sapiens, UniProt P49336)              pIC50   =                6.78
